Test: Toxicity liver stage against HepG2, at 10uM
Assay type: cell-based
Set-up: test concentration 10 uM, cell line HepG2-A16-CD81EGFP
Conditions: human, HepG2-A16-CD81EGFP cells; read-out: INHIBITION
List of cytotoxicity at 10 µM values.
Respond with the figure and its unit, in that order.

Q: Recorded cytotoxicity at 10 µM for "CC(=O)N1CCC2(CC1)CCN(S(=O)(=O)c1ccccc1)C2" , please?
Result: 2.35%

Q: Recorded cytotoxicity at 10 µM for "CCOCc1ncn2c1CN(C(=O)Nc1ccccc1CC)CC2" , please?
Result: 7.45%

Q: Recorded cytotoxicity at 10 µM for CC(C)C(C)N(C)C(=O)COc1ccccc1C#N (centres undefined) , please?
Result: -3.28%

Q: Recorded cytotoxicity at 10 µM for "Cc1ccc(N2CCC3(CC2)CCN(C2CCOCC2)CC3)nn1" , please?
Result: 5.5%

Q: Recorded cytotoxicity at 10 µM for CN(C)C1(C(=O)NC2CCC(Oc3ccccc3C#N)CC2)CCC1 (centres undefined) , please?
Result: 9.92%

Q: Recorded cytotoxicity at 10 µM for "Cc1nc2ccn(C(C)C)c(=O)c2cc1C(=O)O" , please?
Result: -43.6%

Q: Recorded cytotoxicity at 10 µM for c1ccc(CN2CCN(C3CCOC4(CCOCC4)C3)CC2)nc1 (centres undefined) , please?
Result: -0.971%

* * *

Assay: Toxicity liver stage against HepG2, at 10uM
Format: cell-based
Parameters: test concentration 10 uM, cell line HepG2-A16-CD81EGFP
Conditions: human, HepG2-A16-CD81EGFP cells; read-out: INHIBITION
observable: cytotoxicity at 10 µM (%)
Value expressed in %; do not type the unit.

Please review the following examples before continuing.
[[record]]
compound = "Cc1ncsc1CN1C[C@@H]2COC[C@]2(CNC(=O)c2ccco2)C1"
value_observed = -73.8

[[record]]
compound = "O=C(CN1CCC2(CCCN(CCO)C2=O)C1)NCCc1ccccc1 (centres undefined)"
value_observed = 0.174


Q: Recorded cytotoxicity at 10 µM for O=C(NCC1Cn2nnc(-c3ccncc3)c2CO1)c1ccsc1 (centres undefined) , please?
Result: 11.1

Q: Recorded cytotoxicity at 10 µM for "O=C(Nc1cccn(CC(F)(F)F)c1=O)c1ccncc1F" , please?
Result: 0.315

Q: Recorded cytotoxicity at 10 µM for "Fc1ccc(CN2CCCN(Cc3cscn3)CC2)cc1" , please?
Result: 2.62

Q: Recorded cytotoxicity at 10 µM for "O=C(NCCc1ccccc1)c1cn(CCNCc2cccnc2)nn1" , please?
Result: -2.68

Q: Recorded cytotoxicity at 10 µM for "O=C(c1ccc2c(c1)COC2)N1CCN(CC2CC2)CC1" , please?
Result: -7.18

* * *

Experiment: Toxicity liver stage against HepG2, at 10uM
Assay type: cell-based
Set-up: test concentration 10 uM, cell line HepG2-A16-CD81EGFP
Details: human, HepG2-A16-CD81EGFP cells; read-out: INHIBITION
observable: cytotoxicity at 10 µM (%)
Value expressed in %; do not type the unit.

Please review the following examples before continuing.
[[record]]
compound = "CN1[C@H](Cn2cncn2)C[C@@H]2CN(C3CCOCC3)CC[C@@H]21"
value_observed = 4.56

[[record]]
compound = "COc1c(CNCc2nnc3n2CCCCC3)c(C(C)C)nn1C"
value_observed = 11.5

[[record]]
compound = "CC(Cc1ccc2c(c1)OCO2)c1cn(CCc2c[nH]cn2)nn1 (stereo unspecified)"
value_observed = 8.66


Q: Recorded cytotoxicity at 10 µM for "CN(C)C(=O)Cn1cc(C#N)c(=O)c2cc(Br)ccc21" , please?
Result: 15.7

Q: Recorded cytotoxicity at 10 µM for "CC1(C)CC(n2cc3nc(N4CCOCC4)[nH]cc-3c2=O)CC(C)(C)N1" , please?
Result: -19.9

Q: Recorded cytotoxicity at 10 µM for "CC(C)(C)CN[C@@H]1CO[C@H](CNC(=O)c2cccs2)[C@H]1O" , please?
Result: -4.23

Q: Recorded cytotoxicity at 10 µM for CCc1nc(CNC(C)Cn2cccn2)cs1 (stereo unspecified) , please?
Result: -4.67

Q: Recorded cytotoxicity at 10 µM for Cc1cccc(CN2CCN(c3ncnc4[nH]ccc34)CC2CCO)n1 (stereo unspecified) , please?
Result: 10.8

Q: Recorded cytotoxicity at 10 µM for "FC(F)Oc1ccccc1CNCc1cc(Br)c2c(c1)OCO2" , please?
Result: 10.7

Q: Recorded cytotoxicity at 10 µM for Cc1cc(=O)n(CC(=O)NCC2CCCO2)c(-c2ccc(F)cc2)n1 (stereo unspecified) , please?
Result: -10.8

Q: Recorded cytotoxicity at 10 µM for Cc1ccc(CN2CCc3ncnc(C4CCOC4)c3CC2)s1 (stereo unspecified) , please?
Result: -0.827
